B1: Hairpin Ribozyme (parent)
chain: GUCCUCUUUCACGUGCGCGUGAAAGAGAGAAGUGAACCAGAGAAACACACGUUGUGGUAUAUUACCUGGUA

- Variants of: B1
- method.summary: self-cleavage, relative activity (ratio to wild type); higher = more cleavage; co-transcriptional
measure.name: self-cleavage
# print the numeric value only

So for U7A A26G , the logged self-cleavage turned out to be 0.71

So for U53A U60G , the logged self-cleavage turned out to be 0.684

So for A26U G42U , the logged self-cleavage turned out to be 0.173

So for G17U A22U , the logged self-cleavage turned out to be 0.793

So for C4U C6G , the logged self-cleavage turned out to be 0.0904

So for U7C G51C , the logged self-cleavage turned out to be 0.489

So for U8C U53G , the logged self-cleavage turned out to be 0.509

So for U8C U62C , the logged self-cleavage turned out to be 0.201

So for A43G U55G , the logged self-cleavage turned out to be 0.128

Ref: the RNAGym collection of RNA variant scans (doi:10.7554/elife.80360)
